# target_or_test_system: EPHB2 (UniProt P29323)
# Sequence (P29323 whole entry, looked up): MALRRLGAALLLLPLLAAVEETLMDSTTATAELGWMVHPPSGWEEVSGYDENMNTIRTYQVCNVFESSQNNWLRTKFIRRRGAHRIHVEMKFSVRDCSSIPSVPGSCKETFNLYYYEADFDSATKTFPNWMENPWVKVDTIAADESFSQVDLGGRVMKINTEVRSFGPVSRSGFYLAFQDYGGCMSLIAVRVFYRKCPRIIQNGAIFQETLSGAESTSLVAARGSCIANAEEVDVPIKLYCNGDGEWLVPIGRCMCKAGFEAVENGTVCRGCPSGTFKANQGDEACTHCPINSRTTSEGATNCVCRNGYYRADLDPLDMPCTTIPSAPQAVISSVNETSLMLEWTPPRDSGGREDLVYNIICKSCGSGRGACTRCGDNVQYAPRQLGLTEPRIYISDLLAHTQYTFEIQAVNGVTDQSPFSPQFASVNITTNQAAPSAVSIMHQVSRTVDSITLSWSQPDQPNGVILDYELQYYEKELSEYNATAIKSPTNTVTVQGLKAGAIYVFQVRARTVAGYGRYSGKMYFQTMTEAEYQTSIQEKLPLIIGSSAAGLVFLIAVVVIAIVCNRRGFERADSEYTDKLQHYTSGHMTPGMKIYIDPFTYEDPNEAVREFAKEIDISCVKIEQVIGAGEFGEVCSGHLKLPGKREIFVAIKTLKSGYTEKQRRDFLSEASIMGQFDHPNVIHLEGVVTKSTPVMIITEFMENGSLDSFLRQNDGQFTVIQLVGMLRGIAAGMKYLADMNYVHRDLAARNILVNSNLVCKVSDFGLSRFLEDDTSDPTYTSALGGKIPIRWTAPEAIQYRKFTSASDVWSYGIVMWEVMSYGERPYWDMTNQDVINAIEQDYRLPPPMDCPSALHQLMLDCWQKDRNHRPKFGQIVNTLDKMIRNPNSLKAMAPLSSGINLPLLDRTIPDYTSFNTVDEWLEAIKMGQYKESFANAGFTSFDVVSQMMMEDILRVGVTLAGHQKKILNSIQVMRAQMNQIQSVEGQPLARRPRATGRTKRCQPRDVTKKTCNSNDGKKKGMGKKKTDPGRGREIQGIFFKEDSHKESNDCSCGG
# protocol_description: phosphorylation enrichment, bacterial display (enrichment ratio); higher = better substrate or ligand; peptides without Tyr show the background;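 also: 11-residue human phosphosite peptides and single-mutation variants displayed on the E. coli surface, counted by deep sequencing, each peptide's frequency after selection divided by its frequency in the unselected input library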;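 also: frequency after pTyr selection over input frequency; kinase dosed for 20-30% of maximal phosphorylation in three min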
metric_name: phosphorylation enrichment
No unit in the answer, only the number.

Worked examples, 5 sequences total:
{"sequence_entry": "PELIDYGKLWK [ACTN1_Y193_R197W]", "metric_name": "phosphorylation enrichment", "number": 0.683}
{"sequence_entry": "ESDYTYSSSYE [SRPK2_Y427]", "metric_name": "phosphorylation enrichment", "number": 1.45}
{"sequence_entry": "GGRKGYGDFSR [RECQL5_Y478]", "metric_name": "phosphorylation enrichment", "number": 0.354}
{"sequence_entry": "APAHKYHGGGG [HBD_Y146_L142P]", "metric_name": "phosphorylation enrichment", "number": 0.419}
{"sequence_entry": "VILENYGADID [DNAH5_Y596_L591V]", "metric_name": "phosphorylation enrichment", "number": 0.589}

Please look at the following sequence next.
Incoming: State the recorded phosphorylation enrichment for this entry: QDLLLYQTHSE [PKHD1_Y255_F253L]
Outgoing: 1.94

====

# Test system: c-Src
# protocol_description: phosphorylation enrichment, bacterial display (enrichment ratio); higher = better substrate or ligand; peptides without Tyr show the background
metric_name: phosphorylation enrichment
No unit in the answer, only the number.

Worked examples, 2 sequences total:
{"sequence_entry": "IEDPYYGNDFD [ACP1_Y133_S137F]", "metric_name": "phosphorylation enrichment", "number": 2.94}
{"sequence_entry": "ALTDNYMYVVI [HAGH_Y61_L64V]", "metric_name": "phosphorylation enrichment", "number": 1.12}

Incoming: State the recorded phosphorylation enrichment for this entry: PVDTFYDSTRG [DYNC2H1_Y2231_M2227V_YF]
Outgoing: 0.671

Incoming: State the recorded phosphorylation enrichment for this entry: EKQVAYCPSGR [ROS1_Y2323_K2328R]
Outgoing: 0.782

Incoming: State the recorded phosphorylation enrichment for this entry: NTGNYYDLYGG [PTPN11_Y63_D61N]
Outgoing: 5.29

Incoming: State the recorded phosphorylation enrichment for this entry: QFQEKYKQVEQ [HCN4_Y531_YF]
Outgoing: 0.679

Incoming: State the recorded phosphorylation enrichment for this entry: DFLSSYSAVKQ [OAT_Y85_N89K]
Outgoing: 0.444

====

# target_or_test_system: Jak2 (UniProt O60674)
# Sequence (O60674 whole entry, looked up): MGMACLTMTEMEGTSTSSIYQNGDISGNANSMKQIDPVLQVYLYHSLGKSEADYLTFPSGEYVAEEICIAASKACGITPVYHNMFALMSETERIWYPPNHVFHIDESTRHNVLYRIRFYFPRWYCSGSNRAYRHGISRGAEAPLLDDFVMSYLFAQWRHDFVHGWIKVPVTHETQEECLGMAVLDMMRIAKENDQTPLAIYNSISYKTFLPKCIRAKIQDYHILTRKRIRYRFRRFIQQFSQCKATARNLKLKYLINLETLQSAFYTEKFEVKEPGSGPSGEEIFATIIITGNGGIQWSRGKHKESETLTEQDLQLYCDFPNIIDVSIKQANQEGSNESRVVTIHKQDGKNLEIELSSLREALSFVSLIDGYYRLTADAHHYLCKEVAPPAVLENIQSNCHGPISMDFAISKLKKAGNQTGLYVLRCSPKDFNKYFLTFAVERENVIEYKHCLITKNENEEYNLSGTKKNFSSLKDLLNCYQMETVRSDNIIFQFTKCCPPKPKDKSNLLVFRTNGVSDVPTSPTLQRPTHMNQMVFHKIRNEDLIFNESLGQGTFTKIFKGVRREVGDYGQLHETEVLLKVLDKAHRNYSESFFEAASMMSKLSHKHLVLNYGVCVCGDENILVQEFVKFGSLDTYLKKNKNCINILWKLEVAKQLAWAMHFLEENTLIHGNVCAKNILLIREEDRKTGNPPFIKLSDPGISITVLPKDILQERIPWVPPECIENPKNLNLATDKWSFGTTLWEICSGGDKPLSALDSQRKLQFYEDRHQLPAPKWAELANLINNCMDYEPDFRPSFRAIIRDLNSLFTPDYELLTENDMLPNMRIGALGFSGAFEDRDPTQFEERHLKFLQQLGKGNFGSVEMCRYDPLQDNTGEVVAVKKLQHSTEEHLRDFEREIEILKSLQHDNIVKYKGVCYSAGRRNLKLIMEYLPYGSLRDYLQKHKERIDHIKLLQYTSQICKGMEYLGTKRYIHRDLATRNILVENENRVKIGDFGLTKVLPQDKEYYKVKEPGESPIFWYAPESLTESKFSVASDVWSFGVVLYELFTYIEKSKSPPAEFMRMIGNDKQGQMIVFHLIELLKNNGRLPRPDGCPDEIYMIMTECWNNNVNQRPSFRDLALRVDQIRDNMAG
# protocol_description: phosphorylation enrichment, bacterial display (enrichment ratio); higher = better substrate or ligand; peptides without Tyr show the background
phosphorylation enrichment values by entry
No unit in the answer, only the number.

Worked examples, 2 sequences total:
{"sequence_entry": "GEYYRYLAEVA [YWHAG_Y133_D129E]", "number": 4.37}
{"sequence_entry": "VNQSGYTLIRK [ATP6V0A2_Y688_R685Q]", "number": 0.538}

Incoming: State the recorded phosphorylation enrichment for this entry: VDGSVYELHPS [GCK_Y413_K414E]
Outgoing: 0.981

Incoming: State the recorded phosphorylation enrichment for this entry: LEVPLYKNGVK [CPS1_Y1069_A1065E]
Outgoing: 0.643

====

# target_or_test_system: FGFR3 (UniProt P22607)
# Sequence (P22607 whole entry, looked up): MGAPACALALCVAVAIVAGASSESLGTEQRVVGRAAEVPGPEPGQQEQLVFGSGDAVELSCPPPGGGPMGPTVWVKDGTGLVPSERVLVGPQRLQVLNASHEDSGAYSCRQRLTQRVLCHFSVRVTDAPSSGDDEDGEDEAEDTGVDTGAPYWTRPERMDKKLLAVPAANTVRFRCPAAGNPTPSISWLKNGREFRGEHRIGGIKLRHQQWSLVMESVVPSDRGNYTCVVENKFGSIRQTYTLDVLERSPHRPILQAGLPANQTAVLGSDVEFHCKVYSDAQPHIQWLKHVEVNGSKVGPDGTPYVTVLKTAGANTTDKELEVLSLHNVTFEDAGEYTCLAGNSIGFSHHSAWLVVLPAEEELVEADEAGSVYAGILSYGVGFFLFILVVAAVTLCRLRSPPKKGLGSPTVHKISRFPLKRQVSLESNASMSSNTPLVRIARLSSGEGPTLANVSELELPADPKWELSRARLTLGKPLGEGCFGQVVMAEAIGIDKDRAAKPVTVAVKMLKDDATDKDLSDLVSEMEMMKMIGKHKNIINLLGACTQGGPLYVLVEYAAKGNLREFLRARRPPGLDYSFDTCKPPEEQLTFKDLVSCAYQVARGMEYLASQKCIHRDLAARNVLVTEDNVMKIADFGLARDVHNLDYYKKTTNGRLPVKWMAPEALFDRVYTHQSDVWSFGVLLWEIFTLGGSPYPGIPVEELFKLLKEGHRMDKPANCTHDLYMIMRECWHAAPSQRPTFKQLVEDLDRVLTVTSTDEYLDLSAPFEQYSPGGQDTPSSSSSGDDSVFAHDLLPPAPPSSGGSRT
# protocol_description: phosphorylation enrichment, bacterial display (enrichment ratio); higher = better substrate or ligand; peptides without Tyr show the background
phosphorylation enrichment values by entry
No unit in the answer, only the number.

Worked examples, 5 sequences total:
{"sequence_entry": "DDDPEDRKFLE [UPF3B_Y160_Y160D]", "metric_name": "phosphorylation enrichment", "number": 0.641}
{"sequence_entry": "RLPNGYGLAFR [DLK1_Y262_S260N_YF]", "metric_name": "phosphorylation enrichment", "number": 0.858}
{"sequence_entry": "VDTRAYLTSAT [MT-CO1_Y304_F305L]", "metric_name": "phosphorylation enrichment", "number": 0.723}
{"sequence_entry": "RRIHCYRGHLW [VHL_Y112_S111C]", "metric_name": "phosphorylation enrichment", "number": 0.56}
{"sequence_entry": "GADDSYFTARS [ZAP70_Y492_YF]", "metric_name": "phosphorylation enrichment", "number": 0.51}

Incoming: State the recorded phosphorylation enrichment for this entry: LFEDRYLLGPS [ASS1_Y87_T91P_YF]
Outgoing: 1.12

Incoming: State the recorded phosphorylation enrichment for this entry: CATIHYNFMCN [TP53_Y234_T230A_YF]
Outgoing: 0.596

Incoming: State the recorded phosphorylation enrichment for this entry: AAVDTVCRHNY [HLA-DRB1_Y107_Y107V]
Outgoing: 0.673

Incoming: State the recorded phosphorylation enrichment for this entry: EGLRRYLENGK [HLA-A_Y195_W191G]
Outgoing: 0.427

Incoming: State the recorded phosphorylation enrichment for this entry: DPFHVYIKNHV [KCNE3_Y95_R99H_YF]
Outgoing: 0.918

Incoming: State the recorded phosphorylation enrichment for this entry: RKLVDYNSARH [BIN1_Y150_D151N]
Outgoing: 0.326

Incoming: State the recorded phosphorylation enrichment for this entry: DPADRYLIEQC [CDKL5_Y286_T288I]
Outgoing: 0.777

Incoming: State the recorded phosphorylation enrichment for this entry: VGGRIYIDDGL [PKLR_Y218]
Outgoing: 0.539

Incoming: State the recorded phosphorylation enrichment for this entry: LGEGSYGKVKE [STK11_Y60]
Outgoing: 0.783

Incoming: State the recorded phosphorylation enrichment for this entry: PNRILYGDFWQ [MYH6_Y717_R721W]
Outgoing: 0.935

Incoming: State the recorded phosphorylation enrichment for this entry: RRGTRYMFSRP [RPL21_Y13]
Outgoing: 0.554

Incoming: State the recorded phosphorylation enrichment for this entry: TVLWWYTGTRP [UGT1A1_Y337_R336W]
Outgoing: 0.68

Incoming: State the recorded phosphorylation enrichment for this entry: CEHRGSLFLAI [TEK_Y897_Y897S_YF]
Outgoing: 0.725

Incoming: State the recorded phosphorylation enrichment for this entry: DTFDPYLDIAL [USP36_Y268_V271I_YF]
Outgoing: 1

Incoming: State the recorded phosphorylation enrichment for this entry: EKQVAYCPSGR [ROS1_Y2323_K2328R]
Outgoing: 0.705
